B1: CPEB3 Ribozyme (parent)
chain: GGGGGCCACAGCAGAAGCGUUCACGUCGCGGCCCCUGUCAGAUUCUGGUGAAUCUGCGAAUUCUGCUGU

Variants of: B1
TEST: self-cleavage, relative activity (ratio to wild type); higher = more cleavage; co-transcriptional
MEASURED METRIC: self-cleavage

C24U C27A; 0.229
G2A A40G; 0.105

Which value of self-cleavage has been reported for C22A G37A in the records? 0.212

Try this variant too: A23C G41A 0.809

Try this variant too: C12G C24A 0.374

Try this variant too: U38G C57G 0.121

Try this variant too: A8U A40G 0.97

Try this variant too: `C12U` 0.996

Try this variant too: G1U C66U 0.127

Try this variant too: C7A C9A 0.97

Try this variant too: U43G C63A 0.436

Try this variant too: C9A C29A 0.86

Try this variant too: G31C U62C 0.258

Try this variant too: U26C A42G 0.924

Try this variant too: A16U A40U 0.415

Try this variant too: C12A G31U 0.258

The reported numbers originate from the RNAGym collection of RNA variant scans (doi:10.7554/elife.80360).
